tested on: HCT-116; assay: NCI tumour cell line growth inhibition, 48 h
Activity calls are given as the source filed them. No stated cut-off is given here; in the data, active = GI50 up to about 1.1 µM and inactive = higher.
Response enum: y for active, n for inactive

// known answers, use as guide
CC(N)Cc1ccc(Cl)cc1 (stereo not given): n
CCOC(=O)C(Cc1ccc(N(CCCl)CCCl)cc1)NC(=O)CCCN1C(=O)CN=C(c2ccccc2)c2cc(Cl)ccc21 (stereo not given): n
O=C(Cc1nc2ccccc2s1)NC12CC3CC(CC(C3)C1)C2: n
OCC1OC2c3ccccc3COC2C1OCc1ccccc1 (stereo not given): n
CCOC(=O)/C=C/[C@H](O[Si](c1ccccc1)(c1ccccc1)c1ccccc1)C(C)(C)C: n

Task item: Which result was noted for this compound in the test: Nc1nc(SCCC/C=C/I)nc2c1ncn2C1OC(COP(=O)(O)O)C(O)C1O (stereo not given)
Reply: n

Task item: Can you check `O=C1CCN/C(=N\C(=O)C(F)(F)F)N1CCc1c[nH]c2ccccc12` next?
Reply: n

Task item: Note, next up: `OCCN(/N=C\c1ccc2ccccc2c1)C1=NCCN1`
Reply: n

Task item: Try this compound next: `CN(C)CCCNc1ccc2c(=O)n(CCN(C)C)c(=O)n3c4ccccc4c(=O)c1c23`
Reply: y

Task item: Now this one: `Clc1ccc(OCc2nnc(CCCCCCCCc3nnc(COc4ccc(Cl)cc4)n3Nc3ccccc3)n2Nc2ccccc2)cc1`
Reply: n
